Recorded pest or weed control at 200 ppm for the following compounds
- Test system: Rhynchosporium commune
- assay_info: Leaf blotch of barley, whole-plant fungicidal activity (RHYNSE)
- Format: in vivo
- stated_conditions: 24 h, 1DP (1 day protectant), read-out: % Disease Control Rating RHYNSE

Consider the worked cases shown below.
INSERT INTO measurements (compound, quantity_name, recorded_measurement) VALUES
  ('CCN(C)/C=N/c1cc(C)c(C(=O)Cc2ccc3c(c2)CCC3)cc1C [Compound 71]', 'pest or weed control at 200 ppm', '> 85%'),
  ('CCN(C)/C=N/c1cc(C)c(C(=O)Cc2cccc(C(=O)OC)c2)cc1C [Compound 24]', 'pest or weed control at 200 ppm', '< 20%'),
  ('CC/C(=N\c1cc(C)c(C(=O)Cc2c(F)cc(F)cc2F)cc1C)N(C)CC [Compound 87]', 'pest or weed control at 200 ppm', '< 20%'),
  ('Cc1cc(C(=O)CC2CCCCC2)c(C)cc1/N=C(\S)N(C)C [Compound 52]', 'pest or weed control at 200 ppm', '< 20%');

Asked: pest or weed control at 200 ppm lookup needed for CCN(C)/C=N/c1ccc(C(=O)Cc2ccccc2)c(C)c1C [Compound 16] , thanks.
Given back: < 20%

* * *

Recorded pest or weed control at 200 ppm for the following molecules
- Test system: Phakopsora pachyrhizi
- assay_info: Asian soybean rust, whole-plant fungicidal activity (PHAKPA)
- Type: in vivo
- stated_conditions: 72 h, 3DC (3 day curative), read-out: % Disease Control Rating PHAKPA
- Protocol: Example C: Evaluation of Fungicidal Activity: Asian Soybean Rust (Phakopsora pachyrhizi; Bayer Code […]) Technical grades of materials were dissolved in acetone, which were then mixed with nine volumes of H2O containing 0.011% Tween-20. […] Fungicide formulation and application were made as described in Example A. When disease symptoms were fully expressed, disease severity was assessed on the sprayed leaves on a scale of 0 to 100 percent. […]

INSERT INTO results (molecule, recorded_measurement) VALUES
  ('CCN(C)/C=N/c1ccc(C(=O)CC2CCCCC2)c(C)c1C [Compound 15]', '> 85%'),
  ('CCN(C)/C=N/c1cc(C)c(C(=O)Cc2cccc(C(F)(F)F)c2)cc1C [Compound 5]', '> 85%'),
  ('Cc1cc(C(=O)CC2CCCCC2)c(C)cc1/N=C(\S)N(C)C1CCCCC1 [Compound 48]', '< 20%'),
  ('CCN(C)/C=N/c1ccc(C(=O)C2CCC2)c(C)c1 [Compound 101]', '< 20%'),
  ('CCN(C)/C=N/c1cc(C)c(C(=O)Cc2ccc(Cl)cc2F)cc1C [Compound 32]', '> 85%'),
  ('CCN(C)/C=N/c1cc(C)c(C(=O)Cc2cccc(C(=O)OC)c2F)cc1C [Compound 31]', '< 20%');

Asked: pest or weed control at 200 ppm of CCN(C)/C=N/c1cc(OC)c(C(=O)CC2CCCCC2)cc1C [Compound 72] on Phakopsora pachyrhizi?
Given back: > 85%

Asked: Then this molecule: CCN(C)/C=N/c1cc(C)c(C(=O)Cc2c(F)cc(F)cc2F)cc1C [Compound 23]
Given back: > 85%

Asked: Then this molecule: C=CCN(C)/C(S)=N/c1cc(C)c(C(=O)CC2CCCCC2)cc1C [Compound 45]
Given back: 50 to 85%
